Origin of values: BindingDB's records for doi:10.1021/acs.jmedchem.0c01922

- Target desc: Histone deacetylase 11 (Homo sapiens, UniProt Q96DB2)
- Sequence (Q96DB2 whole entry): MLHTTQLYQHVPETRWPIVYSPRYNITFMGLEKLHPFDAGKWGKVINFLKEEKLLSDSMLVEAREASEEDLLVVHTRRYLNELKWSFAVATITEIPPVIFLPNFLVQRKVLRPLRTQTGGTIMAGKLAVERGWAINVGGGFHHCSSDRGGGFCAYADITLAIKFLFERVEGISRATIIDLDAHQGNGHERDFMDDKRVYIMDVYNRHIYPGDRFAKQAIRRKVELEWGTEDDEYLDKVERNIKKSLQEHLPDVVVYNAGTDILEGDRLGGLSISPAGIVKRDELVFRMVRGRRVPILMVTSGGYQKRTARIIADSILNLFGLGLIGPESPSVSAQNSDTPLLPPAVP
- Assay procedure: Inhibition of full length human HDAC11 using FAM-labeled acetylated peptide as substrate by electrophoretic mobility shift assay
Metric name: IC50

input: Consider the compound "O=C(NO)c1ccc(CN(Cc2cccnc2)S(=O)(=O)c2cc(F)c(F)c(F)c2F)cc1" and give its measured IC50.
output: > 1000 nM
